# Assay system: PARP-2 (Homo sapiens (Human), UniProt Q9UGN5)
# Sequence (Q9UGN5 whole entry): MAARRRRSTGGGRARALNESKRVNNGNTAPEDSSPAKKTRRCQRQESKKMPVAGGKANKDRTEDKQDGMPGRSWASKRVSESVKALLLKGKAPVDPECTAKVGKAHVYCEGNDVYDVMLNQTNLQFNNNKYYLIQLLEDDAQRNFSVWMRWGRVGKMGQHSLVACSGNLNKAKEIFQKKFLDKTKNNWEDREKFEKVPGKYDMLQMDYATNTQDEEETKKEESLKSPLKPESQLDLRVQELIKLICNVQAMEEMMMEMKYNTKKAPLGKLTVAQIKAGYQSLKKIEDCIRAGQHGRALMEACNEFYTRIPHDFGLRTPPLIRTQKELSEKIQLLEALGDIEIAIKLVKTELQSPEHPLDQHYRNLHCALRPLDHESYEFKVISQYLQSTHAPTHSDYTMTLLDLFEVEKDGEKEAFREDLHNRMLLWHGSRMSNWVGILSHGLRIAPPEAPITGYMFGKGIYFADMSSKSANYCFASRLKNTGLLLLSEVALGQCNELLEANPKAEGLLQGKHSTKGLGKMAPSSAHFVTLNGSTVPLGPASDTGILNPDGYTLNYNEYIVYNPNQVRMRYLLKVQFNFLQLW
# Assay setup: read-out: PARP-2 (Kd μM); probe P1
Measure name: Kd (µM)

{"Smiles notation": "CN1CCC(n2[nH]c3cccc(C(N)=O)c3c2=O)CC1", "Measured result": 0.04}
{"Smiles notation": "NC(=O)c1cc(F)cc2[nH]n(C3CCN(C4CCCCC4)CC3)c(=O)c12", "Measured result": 5}
{"Smiles notation": "Cn1c2cc(F)cc(C(N)=O)c2c(=O)n1C1CCN(C2CCCCC2)CC1", "Measured result": 0.5}

1: Cn1c2cccc(C(N)=O)c2c(=O)n1C1CCN(C2CCCCC2)CC1
2: NC(=O)c1cccc2[nH]n(C3CCNCC3)c(=O)c12
3: NC(=O)c1cc(F)cc2[nH]n(C3CCNCC3)c(=O)c12
4: Cn1c2cccc(C(N)=O)c2c(=O)n1C1CCN(C2CCCC2)CC1
Ascending by Kd, please: list the molecules accordingly. Output the labels ranked as instructed.
4, 3, 1, 2
(4: 0.05 µM, 3: 0.3 µM, 1: 0.54 µM, 2: 0.78 µM)

----------
# Assay system: PARP-2 (Homo sapiens (Human), UniProt Q9UGN5)
# Assay setup: read-out: PARP-2 (DC50 μM); probe P1
Measure name: DC50 (µM)

{"Compound": "Cn1c2cc(F)cc(C(N)=O)c2c(=O)n1C1CCN(C2CCCCC2)CC1 [Compound 22]", "Measure name": "DC50", "Units symbol": "µM", "Measured result": 0.79}
{"Compound": "Cn1c2cccc(C(N)=O)c2c(=O)n1C1CCN(C2CCC(F)(F)CC2)CC1 [Compound 6]", "Measure name": "DC50", "Units symbol": "µM", "Measured result": 3.95}

a: Cn1c2cccc(C(N)=O)c2c(=O)n1C1CCN(Cc2cccs2)CC1 [Compound 63]
b: Cn1c2cccc(C(N)=O)c2c(=O)n1C1CCN(C2CCCCC2)CC1 [Compound 5]
Endpoint returns whichever of a and b has the numerically higher DC50. Answer = label.
a

----------
# Assay system: PARP-1 (Homo sapiens (Human), UniProt P09874)
# Sequence (P09874 whole entry): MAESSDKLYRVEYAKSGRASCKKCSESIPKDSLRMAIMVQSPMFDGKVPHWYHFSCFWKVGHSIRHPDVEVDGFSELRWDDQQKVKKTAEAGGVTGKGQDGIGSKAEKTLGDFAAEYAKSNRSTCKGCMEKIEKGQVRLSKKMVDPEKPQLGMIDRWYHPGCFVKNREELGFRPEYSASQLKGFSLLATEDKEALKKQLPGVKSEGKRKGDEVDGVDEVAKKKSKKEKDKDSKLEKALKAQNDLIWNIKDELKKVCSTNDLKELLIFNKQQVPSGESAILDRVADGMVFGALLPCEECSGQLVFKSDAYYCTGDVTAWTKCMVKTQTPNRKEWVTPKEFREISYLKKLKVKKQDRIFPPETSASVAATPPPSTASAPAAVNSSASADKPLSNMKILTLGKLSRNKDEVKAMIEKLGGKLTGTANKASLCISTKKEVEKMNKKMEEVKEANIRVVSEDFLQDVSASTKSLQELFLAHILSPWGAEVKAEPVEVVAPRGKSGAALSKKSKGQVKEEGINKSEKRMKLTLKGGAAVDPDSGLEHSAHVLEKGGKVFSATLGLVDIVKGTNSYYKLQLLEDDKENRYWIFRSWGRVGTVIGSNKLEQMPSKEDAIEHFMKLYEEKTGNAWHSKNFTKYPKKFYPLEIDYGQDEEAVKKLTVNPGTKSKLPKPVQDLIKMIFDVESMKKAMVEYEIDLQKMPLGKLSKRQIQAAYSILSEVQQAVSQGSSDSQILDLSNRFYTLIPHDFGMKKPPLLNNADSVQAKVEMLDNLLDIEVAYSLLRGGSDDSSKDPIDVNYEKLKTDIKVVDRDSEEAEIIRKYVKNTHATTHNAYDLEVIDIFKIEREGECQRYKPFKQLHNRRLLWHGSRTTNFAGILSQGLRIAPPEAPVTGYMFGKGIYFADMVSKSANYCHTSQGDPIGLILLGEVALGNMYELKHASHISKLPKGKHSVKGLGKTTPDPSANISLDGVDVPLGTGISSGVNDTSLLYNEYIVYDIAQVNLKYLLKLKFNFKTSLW
# Assay setup: read-out: PARP-1 (Kd μM); probe P3; <0.01 = assay sensitivity limit
Measure name: Kd (µM)

Record excerpt, results attached:
{"Smiles notation": "Cn1c2cccc(C(N)=O)c2c(=O)n1C1CCNCC1", "Kd / µM": 0.014}
{"Smiles notation": "NC(=O)c1cccc2[nH]n(C3CCNCC3)c(=O)c12", "Kd / µM": 0.08}

1: CN1CCC(n2[nH]c3cccc(C(N)=O)c3c2=O)CC1
2: NC(=O)c1cccc2[nH]n(C3CCN(Cc4cccs4)CC3)c(=O)c12
Looking only at measured Kd, which entry is lower, 1 or 2 ? Answer = label.
2

----------
# Assay system: PARP-3 (Homo sapiens (Human))
# Sequence (Q9Y6F1 whole entry): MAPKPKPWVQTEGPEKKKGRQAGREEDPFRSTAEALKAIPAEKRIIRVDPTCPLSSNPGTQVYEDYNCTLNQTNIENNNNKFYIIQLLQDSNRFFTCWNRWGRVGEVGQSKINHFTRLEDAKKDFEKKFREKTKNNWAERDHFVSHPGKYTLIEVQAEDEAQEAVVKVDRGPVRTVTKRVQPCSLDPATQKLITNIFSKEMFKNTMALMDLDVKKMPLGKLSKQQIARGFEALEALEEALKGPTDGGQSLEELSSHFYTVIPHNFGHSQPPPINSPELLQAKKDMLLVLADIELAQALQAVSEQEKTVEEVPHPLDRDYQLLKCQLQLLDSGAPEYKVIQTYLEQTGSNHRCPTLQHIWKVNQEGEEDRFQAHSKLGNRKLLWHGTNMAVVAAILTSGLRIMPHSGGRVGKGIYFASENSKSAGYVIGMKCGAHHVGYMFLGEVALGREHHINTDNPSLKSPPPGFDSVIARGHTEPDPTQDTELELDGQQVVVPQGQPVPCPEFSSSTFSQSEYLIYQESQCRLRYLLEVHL
# Assay setup: read-out: PARP-3 (DC50 μM); probe P1
Measure name: DC50 (µM)

Record excerpt, results attached:
{"Molecule": "NC(=O)c1cccc2[nH]n(C3CCN(Cc4ccco4)CC3)c(=O)c12 [Compound 66]", "Units symbol": "µM", "DC50": 0.58}
{"Molecule": "NC(=O)c1cccc2[nH]n(C3CCN(Cc4cccs4)CC3)c(=O)c12 [Compound 62]", "Units symbol": "µM", "DC50": 0.46}

I: NC(=O)c1cc(F)cc2[nH]n(C3CCNCC3)c(=O)c12 [Compound 20]
II: Cn1c2cccc(C(N)=O)c2c(=O)n1C1CCN(C2CCCC2)CC1 [Compound 7]
Endpoint returns whichever of I and II has the numerically higher DC50. Answer = label.
II
(II: 2.58 µM, I: 0.25 µM)

A: Cn1c2cc(F)cc(C(N)=O)c2c(=O)n1C1CCN(C2CCCCC2)CC1 [Compound 22]
B: Cn1c2cccc(C(N)=O)c2c(=O)n1C1CCNCC1 [Compound 9]
Endpoint returns whichever of A and B has the numerically higher DC50. Answer = label.
A
